pIC50: −log10 of the molar value.
Observed pIC50 values for human Gal-1 (hGal-1) (Homo sapiens (Human), UniProt P09382) are listed in what follows.
Readout label: pIC50

CCc1c(C(S[C@@H]2O[C@H](CO)[C@H](O)[C@H](n3cc(-c4cc(F)c(F)c(F)c4)nn3)[C@H]2O)C2(O)CCC(F)(F)CC2)noc1C1CC1 (some centres unmarked) | 6.89

(I) CO[C@@H]1[C@@H](n2cc(-c3cc(F)c(F)c(F)c3)nn2)[C@@H](O)[C@@H](CO)O[C@H]1SC(c1nc(C)c(C)nc1C)C1(O)CCC(F)(F)CC1 (some centres unmarked)
(II) CO[C@@H]1[C@@H](n2cc(-c3cc(F)c(F)c(F)c3)nn2)[C@@H](O)[C@@H](CO)O[C@H]1S[C@H](c1nnccc1C)C1(O)CCC(F)(F)CC1 [Example 2.44.135R.I.]
(III) OC[C@H]1O[C@@H](S[C@@H](c2ncccc2C2CC2)C2(O)CCC(F)(F)CC2)[C@H](O)[C@@H](n2cc(-c3cc(F)c(F)c(F)c3)nn2)[C@H]1O [Example 2.44.134S.]
(IV) CS(=O)(=O)N1CCC(O)([C@@H](S[C@@H]2O[C@H](CO)[C@H](O)[C@H](n3cc(-c4cc(F)c(F)c(F)c4)nn3)[C@H]2O)c2ccccc2C(F)(F)F)CC1 [Example 2.47.112S.]
Form: Sort by [pIC50] Order [ ascending ] Form field (ranking): labels in requested order.
IV, III, I, II

Origin of the recorded values: patent US12404295B2
